- EXPERIMENTAL SYSTEM: Bifunctional epoxide hydrolase 2 (Homo sapiens, UniProt P34913)
- Sequence (P34913 whole entry): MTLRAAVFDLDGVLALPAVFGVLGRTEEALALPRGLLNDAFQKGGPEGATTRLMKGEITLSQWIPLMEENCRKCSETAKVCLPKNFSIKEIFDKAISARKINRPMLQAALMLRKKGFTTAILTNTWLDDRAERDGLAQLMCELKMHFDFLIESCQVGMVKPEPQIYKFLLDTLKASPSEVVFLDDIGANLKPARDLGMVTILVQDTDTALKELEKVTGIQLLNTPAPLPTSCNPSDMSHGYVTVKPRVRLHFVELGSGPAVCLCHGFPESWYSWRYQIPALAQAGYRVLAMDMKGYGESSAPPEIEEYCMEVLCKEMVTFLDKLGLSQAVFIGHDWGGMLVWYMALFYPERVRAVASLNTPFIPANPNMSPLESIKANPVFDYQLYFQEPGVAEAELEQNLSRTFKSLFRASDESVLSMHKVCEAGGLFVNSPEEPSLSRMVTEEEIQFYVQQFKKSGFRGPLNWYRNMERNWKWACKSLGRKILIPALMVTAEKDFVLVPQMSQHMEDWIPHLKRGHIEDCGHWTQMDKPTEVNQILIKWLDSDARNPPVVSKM
- METHOD SUMMARY: sEH inhibitor concentration-response potency, dose response, biochemical, human sEH, fluorescence, Infinite200 (AID 1026)
QUANTITY: IC50

Cc1cc(Cl)c(OCCCNCc2ccccc2)c(Br)c1 = > 10000 nM
Cc1ccc(NC(=O)NC2CCCCC2)cc1Cl = 70.5 nM

response.value for CCN(CC)S(=O)(=O)c1ccc(N=C2NS(=O)(=O)c3ccccc32)cc1 (field: IC50) = > 10000 nM

response.value for CCOC(=O)c1sc(NC(=O)Nc2ccc(Cl)cc2)cc1C (field: IC50) = 63.1 nM

response.value for CCOC(=O)c1sc(NC(=O)c2ccc(Cl)s2)cc1C (field: IC50) = 82.8 nM

response.value for CCOC(=O)CSc1ccc(-c2nc3cc(C)c(C)cc3[nH]2)cn1 (field: IC50) = > 10000 nM

response.value for COc1ccc(Cn2ccc(=O)c(Cc3c(Cl)cccc3Cl)c2C)cc1 (field: IC50) = > 10000 nM

response.value for COC(=O)c1ccc(S(=O)(=O)N2C3CCC2CC(NC(=O)NC2CCCCC2)C3)cc1 (stereo unspecified) (field: IC50) = 8.9 nM

response.value for c1ccc(CCN=C2NCCCS2)cc1 (field: IC50) = > 10000 nM

response.value for Cc1ccccc1NC(=S)NCCC(c1ccccc1)c1ccccc1 (field: IC50) = > 10000 nM

response.value for CC(C)CN(C#N)c1nc(N2CCOCC2)nc(N2CCOCC2)n1 (field: IC50) = > 10000 nM

----------
- EXPERIMENTAL SYSTEM: Bifunctional epoxide hydrolase 2 (Homo sapiens, UniProt P34913)
- METHOD SUMMARY: sEH inhibitor concentration-response potency, dose response, biochemical, human sEH, fluorescence, Infinite200 (AID 1026)
pIC50: −log10 of the molar value.
QUANTITY: pIC50

Cc1cc(NS(=O)(=O)c2ccc(Nc3nc(-c4sc(NC(=O)c5ccccc5)nc4C)cs3)cc2)no1 = 7.70
COc1ccc(S(=O)(=O)N2C3CCC2CC(NC(=O)NC2CCCCC2)C3)cc1 (configuration not stated) = 7.40
O=C(CCCOc1ccc(Cl)cc1Cl)NN=CC1CCCCC1 = 7.61
CCOC(=O)C(O)(c1ccc(NC(=O)NC2CCCCC2)cc1)C(F)(F)F (configuration not stated) = 6.92

----------
- EXPERIMENTAL SYSTEM: Bifunctional epoxide hydrolase 2 (Homo sapiens, UniProt P34913)
- METHOD SUMMARY: sEH inhibitor concentration-response potency, dose response, biochemical, human sEH, fluorescence, Infinite200 (AID 1026)
pIC50: −log10 of the molar value.
QUANTITY: pIC50

Record excerpt, results attached:
CC(C)(C)c1ccc(S(=O)(=O)N2CCC(c3nc4cc(Cl)ccc4[nH]3)CC2)cc1 = < 5.00
Clc1ccc(CON=CNc2ncnc3sccc23)cc1 = < 5.00

Turning now to a further record.
pIC50 of O=C1Nc2ccc(S(=O)(=O)N3CCOCC3)c3cccc1c23 , assay on Bifunctional epoxide hydrolase 2 (Homo sapiens, UniProt P34913), is < 5.00
